HDAC3 activity raw data (signal) values, listed per item
Target: HDAC3 (Homo sapiens)
Construct: purchased Reaction Biology Corporation (assay run by the CRO)
Experiment: HDAC3 inhibition, full IC50 measurement (Reaction Biology; fluorogenic p53 peptide RHKK(Ac)AMC)
Format: biochemical
Settings: Conc. 1.37E-08 M, t2
Peptide text beside a SMILES is read from it.
API doc: respond with a numeric literal and nothing else, no unit.

Record excerpt, results attached:
[[record]]
compound = "C[C@H](O)[C@H]1NC(=O)[C@H](Cc2c[nH]c3ccccc23)NC(=O)[C@H](CCCCCS)NC(=O)[C@H](CCCCN)NC(=O)[C@@H](CC(=O)O)NC(=O)[C@@H](CCCCN)NC(=O)[C@@H](CO)NC(=O)[C@H](CC(N)=O)NC(=O)[C@H](CC(=O)O)NC1=O [des2.1.0, SHA-Trp-dThr-Asp-Asn-dSer-dLys-dAsp-Lys] (HELM PEPTIDE1{D.N.[dS].[dK].[dD].K.[O=C([C@H](CCCCCS)N[*:1])[*:2]].W.[dT]}$PEPTIDE1,PEPTIDE1,1:R1-9:R2$$$V2.0)"
test_readout = "HDAC3 activity raw data (signal)"
meas_value = 1114131

[[record]]
compound = "CSCC[C@H]1NC(=O)[C@@H](CO)NC(=O)[C@H](CC(N)=O)NC(=O)[C@H](CC(=O)O)NC(=O)[C@@H]([C@H](C)O)NC(=O)[C@H](Cc2c[nH]c3ccccc23)NC(=O)[C@H](CCCCCS)NC(=O)[C@H](CCCCN)NC(=O)[C@@H](CC(=O)O)NC1=O [des2.1.1, SHA-Trp-dThr-Asp-Asn-dSer-dMet-dAsp-Lys] (HELM PEPTIDE1{D.N.[dS].[dM].[dD].K.[O=C([C@H](CCCCCS)N[*:1])[*:2]].W.[dT]}$PEPTIDE1,PEPTIDE1,1:R1-9:R2$$$V2.0)"
test_readout = "HDAC3 activity raw data (signal)"
meas_value = 738917

[[record]]
compound = "CCCC[C@H]1NC(=O)[C@H](Cc2ccccc2)NC(=O)[C@H](CCCCCS)NC(=O)[C@@H](CCCNC(=N)N)NC(=O)[C@H](CC(=O)O)NC(=O)[C@@H](CO)NC(=O)[C@@H](C)NC(=O)[C@H](CCCCN)NC1=O [des4.3.1, SHA-Phe-dNle-Lys-dAla-dSer-Asp-dArg] (HELM PEPTIDE1{D.[dR].[O=C([C@H](CCCCCS)N[*:1])[*:2]].F.[CCCC[C@@H](N[*:1])C(=O)[*:2]].K.[dA].[dS]}$PEPTIDE1,PEPTIDE1,1:R1-8:R2$$$V2.0)"
test_readout = "HDAC3 activity raw data (signal)"
meas_value = 1300529


Consider now this further compound.
Task item: Entry under review: N=C(N)NCCC[C@@H]1NC(=O)[C@H](Cc2c[nH]c3ccccc23)NC(=O)[C@H](CC(=O)O)NC(=O)[C@@H](CO)NC(=O)[C@H](Cc2c[nH]c3ccccc23)NC(=O)[C@H](CCCCCS)NC(=O)[C@H](CCC(N)=O)NC1=O [des4.1.0, SHA-Trp-dSer-Asp-Trp-Arg-Gln] (HELM PEPTIDE1{D.W.R.Q.[O=C([C@H](CCCCCS)N[*:1])[*:2]].W.[dS]}$PEPTIDE1,PEPTIDE1,1:R1-7:R2$$$V2.0) . Reported HDAC3 activity raw data (signal)?
Reply: 905094

###

Molecular target: HDAC3 (Homo sapiens, UniProt O15379)
Construct: purchased Reaction Biology Corporation (assay run by the CRO)
Sequence (O15379 whole entry): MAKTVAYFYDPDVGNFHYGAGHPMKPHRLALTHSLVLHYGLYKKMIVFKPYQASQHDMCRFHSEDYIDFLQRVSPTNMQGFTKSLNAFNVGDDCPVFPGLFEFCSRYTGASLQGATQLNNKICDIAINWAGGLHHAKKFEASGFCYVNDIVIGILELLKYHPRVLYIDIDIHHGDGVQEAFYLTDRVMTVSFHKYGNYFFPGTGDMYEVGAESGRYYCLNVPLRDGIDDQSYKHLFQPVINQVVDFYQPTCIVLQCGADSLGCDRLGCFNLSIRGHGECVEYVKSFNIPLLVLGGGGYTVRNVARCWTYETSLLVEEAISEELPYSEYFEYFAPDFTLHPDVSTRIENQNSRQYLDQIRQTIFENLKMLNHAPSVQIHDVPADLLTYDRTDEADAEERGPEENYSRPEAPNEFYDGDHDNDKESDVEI
Sequence (Q9Y618 395-489 partner limits assumed): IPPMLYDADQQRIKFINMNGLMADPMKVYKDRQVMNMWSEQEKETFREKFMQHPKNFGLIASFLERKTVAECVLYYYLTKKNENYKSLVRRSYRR
Assay: HDAC3 inhibition, full IC50 measurement (Reaction Biology; fluorogenic p53 peptide RHKK(Ac)AMC)
Type: biochemical
Settings: Conc. 3.33E-06 M, t1
Peptide text beside a SMILES is read from it.
TEST_READOUT: HDAC3 activity raw data (signal)
API doc: respond with a numeric literal and nothing else, no unit.

Task item: Entry under review: NCCCC[C@@H]1NC(=O)[C@@H]2C[C@@H](O)CN2C(=O)[C@H](CC(N)=O)NC(=O)[C@H](CCCCCS)NC(=O)CNC(=O)[C@H](Cc2c[nH]c3ccccc23)NC(=O)[C@@H](CCCCN)NC(=O)[C@H](CCC(N)=O)NC1=O [des1.1.2, SHA-Asn-Hpr-Lys-Gln-dLys-Trp-Gly] (HELM PEPTIDE1{G.[O=C([C@H](CCCCCS)N[*:1])[*:2]].N.[Hyp].K.Q.[dK].W}$PEPTIDE1,PEPTIDE1,1:R1-8:R2$$$V2.0) . Reported HDAC3 activity raw data (signal)?
Reply: 60464

Task item: Entry under review: N=C(N)NCCC[C@@H]1NC(=O)[C@@H](CCCNC(=N)N)NC(=O)[C@H]2CCCN2C(=O)[C@@H](Cc2c[nH]cn2)NC(=O)[C@H](Cc2ccc(O)cc2)NC(=O)[C@H](CCCCCS)NC(=O)[C@H](CCc2ccccc2)NC(=O)[C@@H](CO)NC(=O)[C@H](CC(=O)O)NC1=O [des3.3.1, SHA-Tyr-dHis-dPro-dArg-Arg-Asp-dSer-C27] (HELM PEPTIDE1{[O=C([C@H](CCCCCS)N[*:1])[*:2]].Y.[dH].[dP].[dR].R.D.[dS].[O=C([C@H](CCc1ccccc1)N[*:1])[*:2]]}$PEPTIDE1,PEPTIDE1,1:R1-9:R2$$$V2.0) . Reported HDAC3 activity raw data (signal)?
Reply: -4595

###

Biological target: HDAC6 (Homo sapiens)
Construct: purchased Reaction Biology Corporation (assay run by the CRO)
Sequence (Q9UBN7 1-1215): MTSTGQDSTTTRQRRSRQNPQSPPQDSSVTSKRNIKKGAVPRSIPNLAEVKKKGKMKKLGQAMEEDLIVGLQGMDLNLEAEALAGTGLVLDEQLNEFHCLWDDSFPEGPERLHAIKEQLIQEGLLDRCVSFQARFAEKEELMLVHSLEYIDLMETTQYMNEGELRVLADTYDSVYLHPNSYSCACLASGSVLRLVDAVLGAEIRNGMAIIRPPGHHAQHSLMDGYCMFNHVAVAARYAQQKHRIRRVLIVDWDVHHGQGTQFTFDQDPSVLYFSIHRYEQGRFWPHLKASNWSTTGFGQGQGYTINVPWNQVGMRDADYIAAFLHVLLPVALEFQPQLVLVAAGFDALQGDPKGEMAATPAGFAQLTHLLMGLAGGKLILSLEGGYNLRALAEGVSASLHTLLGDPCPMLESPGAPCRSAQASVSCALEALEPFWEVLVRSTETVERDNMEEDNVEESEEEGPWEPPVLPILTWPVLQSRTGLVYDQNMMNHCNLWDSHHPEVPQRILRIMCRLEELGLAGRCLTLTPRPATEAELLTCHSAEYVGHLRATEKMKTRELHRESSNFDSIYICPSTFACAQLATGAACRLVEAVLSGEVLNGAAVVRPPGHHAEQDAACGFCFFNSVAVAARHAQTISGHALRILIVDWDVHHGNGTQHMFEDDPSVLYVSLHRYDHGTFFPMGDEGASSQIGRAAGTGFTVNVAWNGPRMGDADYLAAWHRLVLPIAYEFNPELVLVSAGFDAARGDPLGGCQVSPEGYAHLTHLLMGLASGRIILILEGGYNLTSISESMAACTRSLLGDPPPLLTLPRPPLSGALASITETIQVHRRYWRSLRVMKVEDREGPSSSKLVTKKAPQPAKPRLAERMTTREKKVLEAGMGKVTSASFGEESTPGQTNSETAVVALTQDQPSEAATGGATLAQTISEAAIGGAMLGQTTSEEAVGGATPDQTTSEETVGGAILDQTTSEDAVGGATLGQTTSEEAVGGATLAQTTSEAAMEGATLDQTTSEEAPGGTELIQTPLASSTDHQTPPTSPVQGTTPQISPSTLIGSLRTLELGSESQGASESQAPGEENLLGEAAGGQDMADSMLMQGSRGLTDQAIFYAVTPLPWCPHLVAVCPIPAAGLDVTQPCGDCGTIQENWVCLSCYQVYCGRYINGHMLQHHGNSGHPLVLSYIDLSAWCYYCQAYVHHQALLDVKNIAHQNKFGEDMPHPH
Experiment: HDAC6 inhibition, full IC50 measurement (Reaction Biology; fluorogenic p53 peptide RHKK(Ac)AMC)
Assay type: biochemical
Settings: Conc. 1.37E-08 M, t1
Peptide text beside a SMILES is read from it.
Please use yes (1) whenever HDAC6 activity raw data (signal) is not below 800000, and no (0) whenever it is.

[[record]]
compound = "N=C(N)NCCC[C@@H]1NC(=O)[C@@H](CCCNC(=N)N)NC(=O)[C@H]2CCCN2C(=O)[C@@H](Cc2c[nH]cn2)NC(=O)[C@H](Cc2ccc(O)cc2)NC(=O)[C@H](CCCCCS)NC(=O)[C@H](CCc2ccccc2)NC(=O)[C@@H](CO)NC(=O)[C@H](CC(=O)O)NC1=O [des3.3.1, SHA-Tyr-dHis-dPro-dArg-Arg-Asp-dSer-C27] (HELM PEPTIDE1{[O=C([C@H](CCCCCS)N[*:1])[*:2]].Y.[dH].[dP].[dR].R.D.[dS].[O=C([C@H](CCc1ccccc1)N[*:1])[*:2]]}$PEPTIDE1,PEPTIDE1,1:R1-9:R2$$$V2.0)"
target_of_assay = "HDAC6 (Homo sapiens)"
class_label = "no (0)"


Task item: Form field: HDAC6 activity raw data (signal) at least 800000? Entry: N=C(N)NCCC[C@@H]1NC(=O)[C@H](Cc2c[nH]c3ccccc23)NC(=O)[C@H](CC(=O)O)NC(=O)[C@@H](CO)NC(=O)[C@H](Cc2c[nH]c3ccccc23)NC(=O)[C@H](CCCCCS)NC(=O)[C@H](CCC(N)=O)NC1=O [des4.1.0, SHA-Trp-dSer-Asp-Trp-Arg-Gln] (HELM PEPTIDE1{D.W.R.Q.[O=C([C@H](CCCCCS)N[*:1])[*:2]].W.[dS]}$PEPTIDE1,PEPTIDE1,1:R1-7:R2$$$V2.0)
Reply: yes (1)

Task item: Form field: HDAC6 activity raw data (signal) at least 800000? Entry: CSCC[C@H]1NC(=O)[C@@H](CO)NC(=O)[C@H](CC(N)=O)NC(=O)[C@H](CC(=O)O)NC(=O)[C@@H]([C@H](C)O)NC(=O)[C@H](Cc2c[nH]c3ccccc23)NC(=O)[C@H](CCCCCS)NC(=O)[C@H](CCCCN)NC(=O)[C@@H](CC(=O)O)NC1=O [des2.1.1, SHA-Trp-dThr-Asp-Asn-dSer-dMet-dAsp-Lys] (HELM PEPTIDE1{D.N.[dS].[dM].[dD].K.[O=C([C@H](CCCCCS)N[*:1])[*:2]].W.[dT]}$PEPTIDE1,PEPTIDE1,1:R1-9:R2$$$V2.0)
Reply: no (0)

Task item: Form field: HDAC6 activity raw data (signal) at least 800000? Entry: CCCC[C@H]1NC(=O)[C@H](Cc2ccccc2)NC(=O)[C@H](CCCCCS)NC(=O)[C@@H](CO)NC(=O)[C@H](CC(=O)O)NC(=O)[C@@H](CO)NC(=O)[C@@H](C)NC(=O)[C@H](CCCCN)NC1=O [des4.3.1.1, SHA-Phe-dNle-Lys-dAla-dSer-Asp-dSer] (HELM PEPTIDE1{D.[dS].[O=C([C@H](CCCCCS)N[*:1])[*:2]].F.[CCCC[C@@H](N[*:1])C(=O)[*:2]].K.[dA].[dS]}$PEPTIDE1,PEPTIDE1,1:R1-8:R2$$$V2.0)
Reply: yes (1)
